The entries below come with measured activity at 1 µM values attached.
- Test system: Human Jurkat-E6-1 cells
- method.summary: Detection of IL-2 production by Jurkat cells using ELISA
- Type: cell-based
- test.context: anti-CD3/anti-CD28 stimulation 24 hours, tested compound 1.0 μM, read-out: Percentage of the amount of IL-2 secreted by compound treated vs DMSO-treated cells
- Procedure: Tested compounds: compounds prepared in the Examples of this invention. Human Jurkat-E6-1 cells were incubated with various concentrations of tested compounds for 30 minutes in a humidified incubator at 37° C. and 5% CO2. […] The best standard curve was selected by the microplate reader application software, and the corresponding concentration was calculated according to the GD value of the standard. […]

CN1CCN(c2ccc3cc2OCCCOc2cccc(F)c2-c2cc4c-3n[nH]c4cn2)CC1; 542%
OC1CCN(C2CCN(c3ccc4cc3OCCCOCc3cccc(F)c3-c3cc5c-4n[nH]c5cn3)CC2)CC1; 245%
OC1CCN(c2ccc3cc2OCCCOCc2cccc(F)c2-c2cc4c-3n[nH]c4cn2)CC1; 345%
Fc1cccc2c1-c1cc3c(n[nH]c3cn1)-c1ccc(N3CC4CC(C3)N4C3COC3)c(c1)OCCCO2; 476%
O=C1OC[C@H]2CN(c3ccc4cc3OCCCOCc3cccc(F)c3-c3cc5c-4n[nH]c5cn3)CCN12; 440%

IN: // query activity at 1 µM value for entry Fc1cccc2c1-c1cc3c(n[nH]c3cn1)-c1ccc(N3CCN4CCOC[C@H]4C3)c(c1)OCCCO2
OUT: 702%

IN: Same thing, different compound: CN1C[C@@H]2C[C@H]1CN2c1ccc2cc1OCCCOCc1cccc(F)c1-c1cc3c-2n[nH]c3cn1
OUT: 416%

IN: Follow-up entry: CN1C2CCC1CN(c1ccc3cc1OCCCOc1cccc(F)c1-c1cc4c-3n[nH]c4cn1)C2
OUT: 517%

IN: Please do the same for CN1CCN(c2ccc3cc2OCCCOCc2cccc(F)c2-c2ncc4[nH]nc-3c4n2)CC1 as well.
OUT: 263%

IN: Please answer likewise for CN1CCN(C2CCN(c3ccc4cc3OCCCOCc3cccc(F)c3-c3cc5c-4n[nH]c5cn3)CC2)CC1
OUT: 264%

IN: Another compound to check: CN1C2CC1CN(c1ccc3cc1OCCCOc1cccc(F)c1-c1cc4c-3n[nH]c4cn1)C2
OUT: 525%
